target: Sodium-dependent serotonin transporter (Homo sapiens, UniProt P31645)
Sequence (P31645 whole entry): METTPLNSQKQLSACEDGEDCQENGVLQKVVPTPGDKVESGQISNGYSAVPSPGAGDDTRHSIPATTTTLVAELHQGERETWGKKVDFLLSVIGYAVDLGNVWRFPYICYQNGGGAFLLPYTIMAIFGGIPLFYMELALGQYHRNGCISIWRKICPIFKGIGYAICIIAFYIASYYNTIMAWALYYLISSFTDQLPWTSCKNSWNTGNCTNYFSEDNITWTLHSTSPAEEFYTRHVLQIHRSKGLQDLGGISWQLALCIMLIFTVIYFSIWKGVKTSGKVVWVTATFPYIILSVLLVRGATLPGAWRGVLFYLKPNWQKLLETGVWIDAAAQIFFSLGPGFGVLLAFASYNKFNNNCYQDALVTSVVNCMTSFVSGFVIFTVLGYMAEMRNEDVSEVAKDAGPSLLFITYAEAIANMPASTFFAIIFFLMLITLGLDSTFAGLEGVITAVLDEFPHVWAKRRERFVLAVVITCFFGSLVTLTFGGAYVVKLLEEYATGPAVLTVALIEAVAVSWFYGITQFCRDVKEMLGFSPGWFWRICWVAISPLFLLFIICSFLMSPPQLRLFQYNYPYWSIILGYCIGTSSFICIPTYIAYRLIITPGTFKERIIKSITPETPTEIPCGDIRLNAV
Quick reference: Ki of the listed items.
readout: Ki

INSERT INTO results (compound, result) VALUES
  ('CC(N)Cc1ccc2c(c1)OCO2 (configuration not stated)', '> 10 µM'),
  ('CN[C@@H](C)Cc1ccc2c(c1)OCO2 [DL-(3,4-Methylenedioxy)methamphetamine]', '> 10 µM');
